# tested-on: D(1A) dopamine receptor (Homo sapiens)
# assay-method-text: Binding affinity to dopamine D1 receptor (unknown origin) at 0.1 mM by radioligand displacement assay relative to control
Please provide measured inhibition for the entries that follow.

Exam item: Complete the entry with inhibition for `Cc1ccc(S(=O)(=O)NCCCN2c3ccccc3CCc3ccc(Cl)cc32)cc1`
Marked response: < 5%

Exam item: Give the measured inhibition for `COC(=O)NCCCN1c2ccccc2CCc2ccc(Cl)cc21`
Marked response: < 5%

Exam item: Give a short answer stating reported inhibition for CN1CCN(CCCN2c3ccccc3Sc3ccc(C(F)(F)F)cc32)CC1 [TRIFLUOPERAZINE] .
Marked response: > 95%

Exam item: Using the record for `COC(=O)NCCCN1c2ccccc2Sc2ccc(Cl)cc21` , state its measured inhibition.
Marked response: < 5%

Exam item: Entry `Cc1ccc(S(=O)(=O)NCCCN2c3ccccc3Sc3ccc(Cl)cc32)cc1` needs its inhibition filled in; supply it.
Marked response: < 5%
